Assign R. sanguineus LD50 to each entry below.
system: Brown Dog Tick (Rhipicephalus sanguineus); assay: Dose response protocol for topical application on brown dog ticks (LD50); type: in vivo; conditions: 24 h mortality
Give the value in μg/tick but do not write μg/tick after it.

Note R. sanguineus LD50 for the compound shown: C/C(=N\OCc1ccc(Cl)s1)c1cc(Cl)ccc1NS(=O)(=O)C(F)(F)F [Compound 194]
2.0

Read the entry CC(C)=CCO/N=C(\C)c1cc(Cl)ccc1NS(=O)(=O)C(F)(F)F [Compound 249] and write its reported R. sanguineus LD50.
3.3

Read the entry C#CCO/N=C(\CC)c1cc(Cl)ccc1NS(=O)(=O)C(F)(F)F [Compound 208] and write its reported R. sanguineus LD50.
0.8

Tell me its R. sanguineus LD50 given CCC(CC)O/N=C(\C)c1cc(Cl)ccc1NS(=O)(=O)C(F)(F)F [Compound 174] as the entry.
2.9

====

What C. felis LC50 was measured for each of the following?
System: cat flea (Ctenocephalides felis)
Assay: Ctenocephalides felis adulticide assay: dose response (LC50)
Format: in vivo
Conditions: Laboratory 1 C data
Protocol: c) Ctenocephalides felis Adulticide Assay: C. felis Dose Response The purpose of this example was to determine the LC50 when cat fleas were contacted with a glass surface treated with sample compounds or formulations prepared as described above. […] Six dose levels (concentrations) of test sample, in the form of a serial dilution, were derived from a pilot study and covered a range that produced very low to very high mortality. […] Mortality resulting from the treatments was recorded at 8 and 24 hours.
Quick note: give the figure in μg/cm^2, leave out the unit.

Provide only the value of recorded C. felis LC50 for `CC/C(=N\OCc1ccc(C(F)(F)F)cc1)c1cc(Cl)ccc1NS(=O)(=O)C(F)(F)F`
0.1

Recall and state the measured C. felis LC50 for `C/C(=N\OCC(F)(F)F)c1cc(Cl)ccc1NS(=O)(=O)C(F)(F)F` .
0.1

Specify C. felis LC50 for CCON=C(c1ccccc1)c1cc(Cl)ccc1NS(=O)(=O)C(F)(F)F (single isomer, unassigned) and stop.
0.3

Provide measured C. felis LC50 value, entry: `C/C(=N\OCC1CC1)c1cc(Cl)ccc1NS(=O)(=O)C(F)(F)F`
0.1

Find the measured C. felis LC50 of CC/C(=N\OC1C=CCCC1)c1cc(Cl)ccc1NS(=O)(=O)C(F)(F)F (stereo not shown) and report it.
0.2

Input `CC/C(=N\OCc1ccccc1Cl)c1cc(Cl)ccc1NS(=O)(=O)C(F)(F)F` , output reported C. felis LC50.
0.3

Determine from records and report C. felis LC50 for `CCC(CC)O/N=C(\C)c1cc(Cl)ccc1NS(=O)(=O)C(F)(F)F`
0.1

====

Assign C. felis LC50 to each entry below.
tested on: cat flea (Ctenocephalides felis); test: Ctenocephalides felis adulticide assay: dose response (LC50); format: in vivo; conditions: Laboratory 2 D data

Give the reported C. felis LC50 for this compound. CC(C)ON=C(c1cc(Cl)ccc1NS(=O)(=O)C(F)(F)F)C1CCCCC1 (racemic)
0.1^D μg/cm^2

Name the recorded C. felis LC50 of the compound listed here: `COCCO/N=C(\C)c1cc(Cl)ccc1NS(=O)(=O)C(F)(F)F`
0.01 μg/cm^2

Return the recorded C. felis LC50 value; entry: CC/C(=N\OC(C)CC)c1cc(Cl)ccc1NS(=O)(=O)C(F)(F)F (stereo not shown)
0.1^D μg/cm^2

Fill in C. felis LC50 for record `CC/C(=N\Oc1ccc(F)cc1)c1cc(Cl)ccc1NS(=O)(=O)C(F)(F)F`
0.03 μg/cm^2

Dear colleague, please send me the reported C. felis LC50 for `CC/C(=N\OCC1CC1)c1cc(Cl)ccc1NS(=O)(=O)C(F)(F)F` when you can.
0.008^D μg/cm^2

Determine from records and report C. felis LC50 for `CCCCO/N=C(\CC)c1cc(Cl)ccc1NS(=O)(=O)C(F)(F)F`
0.09^D μg/cm^2

Item `CC/C(=N\Oc1ccc(Cl)cc1)c1cc(Cl)ccc1NS(=O)(=O)C(F)(F)F` : provide C. felis LC50
0.05 μg/cm^2

Item `C/C(=N\OC(C)C)c1ccc(C(F)(F)F)cc1NS(=O)(=O)C(F)(F)F` : provide C. felis LC50
0.2^D μg/cm^2

Output measured C. felis LC50 for this item: `CC(C)/C(=N\Oc1ccc(Cl)cc1)c1cc(Cl)ccc1NS(=O)(=O)C(F)(F)F`
0.07^D μg/cm^2

Note C. felis LC50 for the compound shown: `CC/C(=N\OC1CCCC1)c1cc(Cl)ccc1NS(=O)(=O)C(F)(F)F`
0.02 μg/cm^2

Kindly indicate its recorded C. felis LC50. Item: `CC/C(=N\Oc1ccc(Cl)c(Cl)c1)c1cc(Cl)ccc1NS(=O)(=O)C(F)(F)F`
0.3^D μg/cm^2

Indicate its recorded C. felis LC50; the compound in question is `C/C(=N\OC(C)(C)C)c1cc(Cl)ccc1NS(=O)(=O)C(F)(F)F`
0.04^D μg/cm^2

Please supply the value of reported C. felis LC50 for the item `C/C(=N\OCc1ccc(Cl)s1)c1cc(Cl)ccc1NS(=O)(=O)C(F)(F)F`
0.02^D μg/cm^2

Annotate the compound C/C(=N\OC(C)c1ccc(Cl)cc1)c1cc(Cl)ccc1NS(=O)(=O)C(F)(F)F (stereo not shown) with its measured C. felis LC50.
0.3 μg/cm^2

For `CC/C(=N\OCc1ccc(C(F)(F)F)cc1)c1cc(Cl)ccc1NS(=O)(=O)C(F)(F)F` , write its C. felis LC50.
0.01 μg/cm^2

Please indicate C. felis LC50 recorded for `C/C(=N\OCC(F)(F)F)c1cc(Cl)ccc1NS(=O)(=O)C(F)(F)F`
0.006 μg/cm^2

Tell us which C. felis LC50 value is on record for `C/C(=N\OCC1CCCC1)c1cc(Cl)ccc1NS(=O)(=O)C(F)(F)F`
0.01^D μg/cm^2

// fetch C. felis LC50 given entry `C#CCO/N=C(\CC)c1cc(Cl)ccc1NS(=O)(=O)C(F)(F)F`
0.02^D μg/cm^2

Specify reported C. felis LC50 for the compound shown: `CC/C(=N\OCc1cccs1)c1cc(Cl)ccc1NS(=O)(=O)C(F)(F)F`
0.007^D μg/cm^2

Quickly give me recorded C. felis LC50 for `CC/C(=N\OCc1ccccc1C(F)(F)F)c1cc(Cl)ccc1NS(=O)(=O)C(F)(F)F`
0.03 μg/cm^2

Note down C. felis LC50 recorded for `CC/C(=N\OC(C)(C)C)c1cc(Cl)ccc1NS(=O)(=O)C(F)(F)F`
0.04^D μg/cm^2

Input `C/C(=N\OCC1CC1)c1cc(Cl)ccc1NS(=O)(=O)C(F)(F)F` , output reported C. felis LC50.
0.005 μg/cm^2

Supply reported C. felis LC50 belonging to this compound: CCC(C)O/N=C(\C)c1cc(Cl)ccc1NS(=O)(=O)C(F)(F)F (stereo not shown)
0.1^D μg/cm^2

Supply recorded C. felis LC50 for `CC(C)=CCO/N=C(\C)c1cc(Cl)ccc1NS(=O)(=O)C(F)(F)F` here.
1.3^D μg/cm^2

Supply C. felis LC50 value. Item: `CCCCO/N=C(\C)c1cc(Cl)ccc1NS(=O)(=O)C(F)(F)F`
0.07^D μg/cm^2

For the compound `CC/C(=N\OCc1ccc(Cl)cc1)c1cc(Cl)ccc1NS(=O)(=O)C(F)(F)F` , give its reported C. felis LC50.
0.01 μg/cm^2

Please give the documented C. felis LC50 of `C/C(=N\Oc1ccc(F)cc1)c1cc(Cl)ccc1NS(=O)(=O)C(F)(F)F`
0.02 μg/cm^2

Read the entry C/C(=N\OC(C)C1CC1)c1cc(Cl)ccc1NS(=O)(=O)C(F)(F)F (stereo not shown) and write its reported C. felis LC50.
1.2^D μg/cm^2

Check the records and state C. felis LC50 for `C=CCO/N=C(\C)c1ccc(C(F)(F)F)cc1NS(=O)(=O)C(F)(F)F`
0.1^D μg/cm^2

For the compound `CC/C(=N\OCc1ccc(C(F)(F)F)cc1C(F)(F)F)c1cc(Cl)ccc1NS(=O)(=O)C(F)(F)F` , give its measured C. felis LC50 value.
0.05 μg/cm^2

Look up and report measured C. felis LC50 for this entry: `O=S(=O)(Nc1ccc(Cl)cc1/C(=N/OCc1ccc(C(F)(F)F)cc1)c1ccccc1)C(F)(F)F`
0.8^D μg/cm^2
